target: CFTR (Homo sapiens, UniProt P13569); experiment: T84 assay (FLIPR membrane potential); format: cell-based; parameters: Human colonic T84 cells are acquired from the European Collection of Cell Cultures (ECACC); host or cells: T84 human colonic cells
Sequence (P13569 whole entry): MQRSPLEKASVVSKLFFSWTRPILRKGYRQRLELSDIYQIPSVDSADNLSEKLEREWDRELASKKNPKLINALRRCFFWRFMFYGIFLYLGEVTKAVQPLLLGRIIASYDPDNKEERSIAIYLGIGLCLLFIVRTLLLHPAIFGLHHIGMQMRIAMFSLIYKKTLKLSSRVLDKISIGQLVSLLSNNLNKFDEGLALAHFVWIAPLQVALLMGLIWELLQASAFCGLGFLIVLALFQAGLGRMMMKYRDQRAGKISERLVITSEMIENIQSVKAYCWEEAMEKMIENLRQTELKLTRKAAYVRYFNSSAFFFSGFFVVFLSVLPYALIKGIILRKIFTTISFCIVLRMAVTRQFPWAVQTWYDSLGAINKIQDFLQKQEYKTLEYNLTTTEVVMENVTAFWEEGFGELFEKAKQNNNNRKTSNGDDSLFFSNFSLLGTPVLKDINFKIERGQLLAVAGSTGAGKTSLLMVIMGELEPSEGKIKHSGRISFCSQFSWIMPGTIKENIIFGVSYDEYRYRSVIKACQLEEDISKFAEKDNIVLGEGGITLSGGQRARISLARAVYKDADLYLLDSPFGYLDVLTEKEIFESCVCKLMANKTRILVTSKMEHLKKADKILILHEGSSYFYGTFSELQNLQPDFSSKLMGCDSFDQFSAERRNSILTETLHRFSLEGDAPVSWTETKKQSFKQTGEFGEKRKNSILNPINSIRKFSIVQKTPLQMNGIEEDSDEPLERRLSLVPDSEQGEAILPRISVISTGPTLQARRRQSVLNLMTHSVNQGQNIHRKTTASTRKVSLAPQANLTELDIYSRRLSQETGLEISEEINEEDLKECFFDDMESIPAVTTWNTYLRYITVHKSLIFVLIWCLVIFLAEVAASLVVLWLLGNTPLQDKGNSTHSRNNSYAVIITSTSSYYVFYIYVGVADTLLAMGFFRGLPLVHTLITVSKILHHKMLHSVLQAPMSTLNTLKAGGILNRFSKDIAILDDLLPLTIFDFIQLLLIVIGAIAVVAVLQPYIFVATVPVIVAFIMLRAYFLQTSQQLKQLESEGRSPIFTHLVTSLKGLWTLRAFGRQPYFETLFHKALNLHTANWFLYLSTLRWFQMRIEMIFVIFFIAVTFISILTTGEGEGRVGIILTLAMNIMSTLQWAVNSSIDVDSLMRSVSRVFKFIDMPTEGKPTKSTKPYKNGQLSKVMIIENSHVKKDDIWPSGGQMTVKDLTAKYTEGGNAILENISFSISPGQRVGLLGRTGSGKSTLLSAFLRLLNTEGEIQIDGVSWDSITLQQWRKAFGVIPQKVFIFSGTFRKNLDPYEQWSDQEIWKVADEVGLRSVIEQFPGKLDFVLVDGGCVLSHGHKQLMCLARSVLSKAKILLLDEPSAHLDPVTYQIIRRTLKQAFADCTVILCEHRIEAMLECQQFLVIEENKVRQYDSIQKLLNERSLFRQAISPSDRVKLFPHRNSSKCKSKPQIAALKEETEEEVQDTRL
test readout: pIC50
Scale explanation: pIC50 corresponds to minus log10 of a concentration expressed in moles per litre.

Input: May I ask what pIC50 has been recorded for `O=C(NCc1ccc(OCc2ccccc2)cc1)c1nnc(-c2cc(Cl)c(O)c(Cl)c2)o1` ?
Output: 5.01

Input: Same for `O=C(NCc1cccc(OCc2ccccc2)c1)c1nnc(-c2cc(Cl)c(O)c(Cl)c2)o1`
Output: 5.12

Input: Same for `O=C(NCc1ccc(Oc2ccccc2)cc1)c1nnc(-c2ccc(NS(=O)(=O)C(F)(F)F)cc2)o1`
Output: 4.72

----------
biological target: CFTR (Homo sapiens); experiment: CHO-CFTR assay (FLIPR assay); type: cell-based; design: expressed in transfected cells; host or cells: CHO-K1 cells, stably transfected; conditions: same assay conditions (FLIPR assay); read-out: IC50 value in the CHO-CFTR cell line
Sequence (P13569 whole entry, species assumed): as the sequence (P13569 whole entry) above
test readout: IC50 (µM)
The response must be a number in µM with no trailing unit.

Input: For the record `O=C(c1nnc(-c2cc(Cl)c(O)c(Cl)c2)o1)N1CCN(c2cccc(C(F)(F)F)c2)CC1` , what value of IC50 is listed for CFTR (Homo sapiens)?
Output: 10.6

----------
target: UniProtKB P13569; experiment: T84 assay (FLIPR membrane potential); type: cell-based; design: Human colonic T84 cells are acquired from the European Collection of Cell Cultures (ECACC); host or cells: T84 human colonic cells
test readout: IC50 (µM)
The response must be a number in µM with no trailing unit.

Input: May I ask what IC50 has been recorded for `CC(C)(C)c1ccc(CNC(=O)c2nnc(-c3cccc(NS(=O)(=O)C(F)(F)F)c3)o2)cc1` ?
Output: 19

Input: Same for `O=C(c1nnc(-c2cc(Cl)c(O)c(Cl)c2)o1)N1CCC(Cc2ccccc2)CC1`
Output: 9.5

Input: Same for `O=C(c1nnc(-c2cccc(NS(=O)(=O)C(F)(F)F)c2)o1)N1CCC(Cc2ccccc2)CC1`
Output: 13.3

Input: Same for `CN(Cc1ccc(Cl)c(Cl)c1)C(=O)c1nnc(-c2cccc(NS(=O)(=O)C(F)(F)F)c2)o1`
Output: 11.8

Input: Same for `O=C(c1nnc(-c2ccc(NS(=O)(=O)C(F)(F)F)cc2)o1)N1CCN(c2cccc(C(F)(F)F)c2)CC1`
Output: 20.6

----------
Reported IC50 by item:
target: CFTR (Homo sapiens); assay: T84 assay (FLIPR membrane potential); type: cell-based; parameters: Human colonic T84 cells are acquired from the European Collection of Cell Cultures (ECACC); host or cells: T84 human colonic cells
The response must be a number in µM with no trailing unit.

Check out these entries, answers already filled in.
- entry smiles: "CN(Cc1cccc(Oc2ccccc2)c1)C(=O)c1nnc(-c2cc(Cl)c(O)c(Cl)c2)o1"
  test readout: "IC50"
  reported: 3.26
- entry smiles: "O=C(NCc1cccc(Oc2ccccc2)c1)c1nnc(-c2cc(Cl)c(O)c(Cl)c2)o1"
  test readout: "IC50"
  reported: 5.37
- entry smiles: "O=C(NCc1ccc(Oc2ccccc2)cc1)c1nnc(-c2cccc(NS(=O)(=O)C(F)(F)F)c2)o1"
  test readout: "IC50"
  reported: 15.8
- entry smiles: "O=C(NCc1cccc(OC(F)(F)F)c1)c1nnc(-c2cc(Cl)c(O)c(Cl)c2)o1"
  test readout: "IC50"
  reported: 17.4

// below: IC50 requested for another compound
Input: May I ask what IC50 has been recorded for `O=C(c1nnc(-c2cccc(NS(=O)(=O)C(F)(F)F)c2)o1)N1CCN(c2cccc(C(F)(F)F)c2)CC1` ?
Output: 13.4
